Each recorded value in this set is attributed to paper PMC4719211.

experiment: Pharmacokinetic study in rats after oral administration of Typhae Pollen / Typhae Pollen-Trogopterus Feces decoctions (plasma, UPLC-TQ/MS); format: in vivo, female Sprague–Dawley (SD) rats; settings: female, Sprague-Dawley, rat, plasma, po, 10 g/kg, oral TP-TF mixed decoction (CB), n = 6, noncompartment model
reported property: Cmax (ng/mL)

(a) O=C(O)/C=C/c1ccc(O)cc1 [P-coumaric acid, p-coumaric acid]
(b) COc1cc(C(=O)O)ccc1O [Vanillic acid, vanillic acid]
Inquiry: Please indicate which has the smaller reported Cmax: a , or b . // caller expects the label of the chosen entry
Reply text: b

====

test: Pharmacokinetic study in rats after oral administration of Typhae Pollen / Typhae Pollen-Trogopterus Feces decoctions (plasma, UPLC-TQ/MS); type: in vivo, female Sprague–Dawley (SD) rats; conditions: female, Sprague-Dawley, rat, plasma, po, 10 g/kg, oral TP-TF mixed decoction (CB), n = 6, noncompartment model
reported property: Tmax (min)

(P) O=C(O)/C=C/c1ccc(O)cc1 [P-coumaric acid, p-coumaric acid]
(Q) COc1cc(C(=O)O)ccc1O [Vanillic acid, vanillic acid]
Inquiry: Response body: label of entry with the larger Tmax; valid values P , Q . // caller expects the label of the chosen entry
Reply text: P
(P: 27.6 min, Q: 10.2 min)

====

assay: Pharmacokinetic study in rats after oral administration of Typhae Pollen / Typhae Pollen-Trogopterus Feces decoctions (plasma, UPLC-TQ/MS); assay type: in vivo, female Sprague–Dawley (SD) rats; conditions: female, Sprague-Dawley, rat, in vivo, po, 5 g/kg, oral TP single drug decoction (CN), n = 6, noncompartment model
reported property: Tmax (h)
Hi! Could you send only the number? It should be in h, unit omitted.

Inquiry: Complete the entry with Tmax for COc1cc(-c2oc3cc(O)cc(O)c3c(=O)c2O[C@@H]2O[C@H](CO[C@@H]3O[C@@H](C)[C@H](O)[C@@H](O)[C@H]3O)[C@@H](O)[C@H](O)[C@H]2O[C@@H]2O[C@@H](C)[C@H](O)[C@@H](O)[C@H]2O)ccc1O [Typhaneoside, typhaneoside]
Reply text: 2.95

====

experiment: Pharmacokinetic study in rats after oral administration of Typhae Pollen / Typhae Pollen-Trogopterus Feces decoctions (plasma, UPLC-TQ/MS); format: in vivo, female Sprague–Dawley (SD) rats; details: female, Sprague-Dawley, rat, plasma, po, 5 g/kg, oral TP single drug decoction (CN), n = 6, noncompartment model
reported property: Cmax (ng/mL)

(I) O=C(O)/C=C/c1ccc(O)cc1 [P-coumaric acid, p-coumaric acid]
(II) COc1cc(C(=O)O)ccc1O [Vanillic acid, vanillic acid]
Inquiry: Please indicate which has the smaller reported Cmax: I , or II . // caller expects the label of the chosen entry
Reply text: II
(II: 2210 ng/mL, I: 4900 ng/mL)

====

experiment: Pharmacokinetic study in rats after oral administration of Typhae Pollen / Typhae Pollen-Trogopterus Feces decoctions (plasma, UPLC-TQ/MS); type: in vivo, female Sprague–Dawley (SD) rats; conditions: female, Sprague-Dawley, rat, in vivo, po, 5 g/kg, oral TP single drug decoction (CN), n = 6, noncompartment model
reported property: Cmax (ng/mL)
Hi! Could you send only the number? It should be in ng/mL, unit omitted.

Inquiry: Complete the entry with Cmax for COc1cc(-c2oc3cc(O)cc(O)c3c(=O)c2O[C@@H]2O[C@H](CO[C@@H]3O[C@@H](C)[C@H](O)[C@@H](O)[C@H]3O)[C@@H](O)[C@H](O)[C@H]2O[C@@H]2O[C@@H](C)[C@H](O)[C@@H](O)[C@H]2O)ccc1O [Typhaneoside, typhaneoside]
Reply text: 76.4

====

experiment: Pharmacokinetic study in rats after oral administration of Typhae Pollen / Typhae Pollen-Trogopterus Feces decoctions (plasma, UPLC-TQ/MS); type: in vivo, female Sprague–Dawley (SD) rats; settings: female, Sprague-Dawley, rat, in vivo, po, 10 g/kg, oral TP-TF co-decoction (CM), n = 6, noncompartment model
reported property: half-life (h)
Hi! Could you send only the number? It should be in h, unit omitted.

Inquiry: Complete the entry with half-life for COc1cc(-c2oc3cc(O)cc(O)c3c(=O)c2O[C@@H]2O[C@H](CO[C@@H]3O[C@@H](C)[C@H](O)[C@@H](O)[C@H]3O)[C@@H](O)[C@H](O)[C@H]2O[C@@H]2O[C@@H](C)[C@H](O)[C@@H](O)[C@H]2O)ccc1O [Typhaneoside, typhaneoside]
Reply text: 1.91

====

assay: Pharmacokinetic study in rats after oral administration of Typhae Pollen / Typhae Pollen-Trogopterus Feces decoctions (plasma, UPLC-TQ/MS); assay type: in vivo, female Sprague–Dawley (SD) rats; details: female, Sprague-Dawley, rat, plasma, po, 10 g/kg, oral TP-TF mixed decoction (CB), n = 6, noncompartment model
reported property: half-life (h)

1. O=C(O)/C=C/c1ccc(O)cc1
10.1
2. COc1cc(C(=O)O)ccc1O
8.88

====

assay: Pharmacokinetic study in rats after oral administration of Typhae Pollen / Typhae Pollen-Trogopterus Feces decoctions (plasma, UPLC-TQ/MS); format: in vivo, female Sprague–Dawley (SD) rats; settings: female, Sprague-Dawley, rat, in vivo, po, 5 g/kg, oral TP single drug decoction (CN), n = 6, noncompartment model
reported property: half-life (h)
Hi! Could you send only the number? It should be in h, unit omitted.

Inquiry: Complete the entry with half-life for COc1cc(-c2oc3cc(O)cc(O)c3c(=O)c2O[C@@H]2O[C@H](CO[C@@H]3O[C@@H](C)[C@H](O)[C@@H](O)[C@H]3O)[C@@H](O)[C@H](O)[C@H]2O[C@@H]2O[C@@H](C)[C@H](O)[C@@H](O)[C@H]2O)ccc1O [Typhaneoside, typhaneoside]
Reply text: 3.35

====

test: Pharmacokinetic study in rats after oral administration of Typhae Pollen / Typhae Pollen-Trogopterus Feces decoctions (plasma, UPLC-TQ/MS); type: in vivo, female Sprague–Dawley (SD) rats; conditions: female, Sprague-Dawley, rat, in vivo, po, 10 g/kg, oral TP-TF co-decoction (CM), n = 6, noncompartment model
reported property: Tmax (min)
Hi! Could you send only the number? It should be in min, unit omitted.

Inquiry: Complete the entry with Tmax for COc1cc(-c2oc3cc(O)cc(O)c3c(=O)c2O[C@@H]2O[C@H](CO[C@@H]3O[C@@H](C)[C@H](O)[C@@H](O)[C@H]3O)[C@@H](O)[C@H](O)[C@H]2O[C@@H]2O[C@@H](C)[C@H](O)[C@@H](O)[C@H]2O)ccc1O [Typhaneoside, typhaneoside]
Reply text: 14.4

====

assay: Pharmacokinetic study in rats after oral administration of Typhae Pollen / Typhae Pollen-Trogopterus Feces decoctions (plasma, UPLC-TQ/MS); format: in vivo, female Sprague–Dawley (SD) rats; conditions: female, Sprague-Dawley, rat, plasma, po, 10 g/kg, oral TP-TF co-decoction (CM), n = 6, noncompartment model
reported property: Tmax (h)

1) O=C(O)/C=C/c1ccc(O)cc1
1.42
2) COc1cc(C(=O)O)ccc1O
1.47

====

assay: Pharmacokinetic study in rats after oral administration of Typhae Pollen / Typhae Pollen-Trogopterus Feces decoctions (plasma, UPLC-TQ/MS); format: in vivo, female Sprague–Dawley (SD) rats; settings: female, Sprague-Dawley, rat, plasma, po, 5 g/kg, oral TP single drug decoction (CN), n = 6, noncompartment model
reported property: Tmax (h)

1) O=C(O)/C=C/c1ccc(O)cc1
1.08
2) COc1cc(C(=O)O)ccc1O
1.25
